- Experimental target: Caspase-6 (Homo sapiens, UniProt P55212)
- Experimental details: inhibition of CASP6 peptide cleavage – biochemical, VEID-R110 fluorescence, cherry-pick, dose response (AID 720632)
Calls of active or inactive are those of the source.
Field: AC50. Provide a value for each of the molecules that follow.

Record `NNS(=O)(=O)c1ccc2c(c1)Cc1cc(S(=O)(=O)NN)ccc1-2` , field AC50: 15.8 µM (active)

Record `Nc1ccc(Nc2ccccc2)c(S(=O)(=O)O)c1` , field AC50: 1.22 µM (active)

Record `CSc1ccccc1NC(=O)CN(C)C(=O)COc1cccc2cccnc12` , field AC50: 29.5 µM (active)

Record `O=C(O)C/C(=C\c1cc(Cl)c2c(c1)OCO2)c1nc2ccccc2s1` , field AC50: 7.56 µM (active)

Record `O=C(O)CCC(=O)NCc1ccc2[nH]c3c(c2c1)CCCC3` , field AC50: 25.6 µM (active)

Record `Oc1nc(Nc2ccc(F)cc2)cc2ccccc12` , field AC50: 0.942 µM (active)

Record `Oc1nc(Nc2ccccn2)cc2ccccc12` , field AC50: 5.89 µM (active)

Record `CN(C)c1ccc2c(c1)[C@@H]1C[C@@H](CC(=O)N3CCOCC3)O[C@@H](CO)[C@@H]1O2` , field AC50: 42.4 µM (active)

Record `CC(=O)N(C)c1ccc(NC(=O)Cc2cccs2)cc1` , field AC50: 31.8 µM (active)

Record `Cc1cc(/C=N/Nc2ccc([N+](=O)[O-])cn2)c(C)n1-c1ccc(C(=O)O)cc1` , field AC50: 5.03 µM (active)

Record `C/C(CC(=O)N1CCCC1)=N\NC(=O)c1cc2ccccc2cc1O` , field AC50: 1.88 µM (active)

Record `CC1=NN(c2ccc(C)c(C)c2)C(=O)/C1=C\C=C\c1ccc([N+](=O)[O-])o1` , field AC50: 1.79 µM (active)

---

- Experimental details: blockers of HIV-1 ZM109 envelope-driven cell-cell fusion – HeLa effector, CEM target cells, luciferase, cherry-pick, dose response (AID 652058);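 note: luciferase signal from HIV-1 Env mediated cell-cell fusion of effector and target cells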
- Assay type: functional, cell-based
Active and inactive are the calls of the source.
Field: AC50. Provide a value for each of the compounds that follow.

Record `COc1ccc2nc(Nc3nc(O)cc(CSc4nc5ccccc5[nH]4)n3)nc(C)c2c1` , field AC50: 3.57 µM (active)

Record COc1ccc(CCN2C(=O)c3[nH]nc(-c4ccccc4O)c3C2c2ccccc2)cc1OC (stereo not given) , field AC50: 0.625 µM (active)

Record CN1CCN(c2ccccc2NC(=O)C(Cc2ccccc2)n2cccc2)CC1 (stereo not given) , field AC50: 6.39 µM (active)

Record Cc1ccc(C(C(=O)NC2CCCCC2)N(C(=O)c2csnn2)C2CCCC2)o1 (stereo not given) , field AC50: 3.63 µM (active)

Record `Cc1cc(C)c2nc(C(F)(F)F)nc(N3CCN(C(=O)c4ccco4)CC3)c2c1` , field AC50: 1.22 µM (active)

---

- Experimental target: Neurotensin receptor type 1 (Homo sapiens);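 note: Image-based confirmatory dose-response assay measuring agonist activity at NTR1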;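 note: NTR1-expressing U2OS osteosarcoma cells imaged for beta-arrestin GFP spot formation; agonist potency where compounds increase beta-arrestin recruitment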
- Sequence (P30989 whole entry): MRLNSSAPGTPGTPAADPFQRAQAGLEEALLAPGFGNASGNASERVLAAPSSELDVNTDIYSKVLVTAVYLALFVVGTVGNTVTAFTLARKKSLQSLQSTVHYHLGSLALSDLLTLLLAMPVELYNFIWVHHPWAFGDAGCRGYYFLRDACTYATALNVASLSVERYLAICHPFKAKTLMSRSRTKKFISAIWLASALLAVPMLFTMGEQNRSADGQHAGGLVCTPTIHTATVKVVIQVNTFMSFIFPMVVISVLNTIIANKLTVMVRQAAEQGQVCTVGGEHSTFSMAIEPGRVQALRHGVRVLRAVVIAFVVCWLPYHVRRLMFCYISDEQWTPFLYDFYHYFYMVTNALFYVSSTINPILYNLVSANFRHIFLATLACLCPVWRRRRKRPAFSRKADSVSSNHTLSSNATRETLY
- Type: functional
Calls of active or inactive are those of the source.
Hello, when you answer, please use one of the following outcomes: Y for active, N for inactive

Q. Recorded test call requested for `Clc1ccc(C2=Nn3c(nnc3-c3cc(-c4ccccc4)n[nH]3)SC2)cc1`
A. N

Q. Recorded test call requested for `Cc1cc(C)n(-c2nc(Nc3ccccc3C)nc(-n3nc(C)cc3C)n2)n1`
A. Y

Q. Recorded test call requested for `CCCCCCCCn1c2c(c(=N)c3ccccc31)CCC2`
A. Y

Q. Recorded test call requested for `CC(C)C(=O)N1CCN(c2ccc(NC(=O)c3ccc4c(c3)OCCO4)cc2Cl)CC1`
A. Y

Q. Recorded test call requested for CCc1ccc2c(c1)C1(C(=O)N2)N2CCCC2C(C(=O)c2ccc3ccccc3c2)C12C(=O)Nc1ccccc12 (stereo not given)
A. Y

The reported measurements were obtained from ChEMBL document CHEMBL1201862.
